Provenance of the data: patent US9328099B2

Target: UniProt O60674
Sequence (O60674 849-1124): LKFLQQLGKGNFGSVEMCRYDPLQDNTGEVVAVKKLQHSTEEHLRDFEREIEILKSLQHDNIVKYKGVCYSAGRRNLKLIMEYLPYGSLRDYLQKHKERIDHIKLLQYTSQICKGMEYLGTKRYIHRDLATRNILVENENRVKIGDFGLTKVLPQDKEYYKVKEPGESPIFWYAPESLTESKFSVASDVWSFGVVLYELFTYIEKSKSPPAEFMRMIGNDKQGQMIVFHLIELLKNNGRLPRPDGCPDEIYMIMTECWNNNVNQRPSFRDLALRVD
Assay: Jak Biochemical HTRF Assay, JAK2
Conditions: HTRF biochemical assay, GST-tagged catalytic domain; top concentration tested […]
For each of the compounds below, state its IC50.
Answers are plain numbers, in nM.

Study these solved cases before continuing.
{"columns": ["compound", "attribute-measured", "recorded-measurement"],
 "data": [
  ["CS(=O)(=O)c1ccc(Nc2nn(C3(CC#N)CN(C(=O)Nc4cc(F)ccc4F)C3)cc2C(N)=O)cc1 [Example 38-42]", "IC50", 237],
  ["N#CCC1(n2cc(C(N)=O)c(Nc3ccccc3)n2)CCN(S(=O)(=O)c2ccccc2)CC1 [Example 37-6]", "IC50", 1],
  ["N#CCC1(n2cc(C(N)=O)c(Nc3ccccc3)n2)CN(C(=O)Nc2ccc(F)c(Cl)c2)C1 [Example 38-40]", "IC50", 279],
  ["CC(C)(C)OC(=O)N1CCC(CC#N)(n2cc(C(N)=O)c(Nc3ccc(S(=O)(=O)C(F)F)cc3)n2)CC1 [Example 9-16]", "IC50", 0.6],
  ["CNC(=O)c1cn(C2(CC#N)CCN(C(=O)OC(C)(C)C)CC2)nc1Nc1ccccc1 [Example 1]", "IC50", 1480],
  ["CCCCNC(=O)N1CC(CC#N)(n2cc(C(N)=O)c(Nc3ccccc3)n2)C1 [Example 38-5]", "IC50", 214],
  ["N#CCC1(n2cc(C(N)=O)c(Nc3ccc(S(=O)(=O)C(F)F)cc3)n2)CCC(NC2CCOCC2)CC1 (centres unmarked) [Example 40-26]", "IC50", 5],
  ["N#CCC1(n2cc(C(N)=O)c(Nc3ccnc(F)c3)n2)CCN(Cc2ccc(C#N)cc2)CC1 [Example 22-69]", "IC50", 9],
  ["CC(C)(C(=O)N1CCC(CC#N)(n2cc(C(N)=O)c(Nc3ccnc(F)c3)n2)CC1)C(F)(F)F [Example 34-55]", "IC50", 28],
  ["CC(C)(C)OC(=O)N1CCC(CC#N)(n2cc(C(N)=O)c(Nc3ccccc3)n2)C1 (centres unmarked) [Example 2-17]", "IC50", 27]
]}

Field: IC50. Fill in for each record below.
1. CC(C)(C)OC(=O)N1CCC(CC#N)(n2cc(C(N)=O)c(Nc3cncc(Cl)c3)n2)CC1 [Example 9-36]
2. COC(=O)N1CCC(CC#N)(n2cc(C(N)=O)c(Nc3ccccc3)n2)CC1 [Example 27-5]
3. N#CCC1(n2cc(C(N)=O)c(Nc3ccccc3)n2)CCN(S(=O)(=O)c2cccc(Cl)c2)CC1 [Example 37-11]
4. N#CCC1(n2cc(C(N)=O)c(Nc3ccnc(F)c3)n2)CCC(Nc2cc(F)ccc2F)CC1 (centres unmarked) [Example 40-63]
5. N#CCC1(n2cc(C(N)=O)c(Nc3ccc(F)cc3)n2)CCC(NCc2ccccc2)CC1 (centres unmarked) [Example 40-92]
6. CC(C)(O)Cc1cccc(N2CCC(CC#N)(n3cc(C(N)=O)c(Nc4ccc(F)cc4)n3)CC2)n1 [Example 3-49]
7. N#CCC1(n2cc(C(N)=O)c(Nc3ccccc3)n2)CCN(Cc2ccc(Cl)cc2F)CC1 [Example 21-21]
8. N#CCC1(n2cc(C(N)=O)c(Nc3ccnc(F)c3)n2)CCN(Cc2cccc3cc[nH]c23)CC1 [Example 22-21]

Output:
1. 21
2. 235
3. 2
4. 1
5. 0.2
6. 147
7. 44
8. 41

Field: IC50. Fill in for each record below.
1. N#CCC1(n2cc(C(N)=O)c(Nc3ccnc(F)c3)n2)CCN(Cc2cc3ccccn3n2)CC1 [Example 22-34]
2. N#CCC1(n2cc(C(N)=O)c(Nc3ccccc3)n2)CN(C(=O)Nc2ccc(F)cc2F)C1 [Example 38-28]
3. CC(C)(C)OC(=O)N1CCC(CC#N)(n2cc(C(N)=O)c(Nc3ccc(C(=O)N4CCOCC4)cc3)n2)CC1 [Example 9-25]
4. N#CCC1(n2cc(C(N)=O)c(Nc3ccc(F)cc3)n2)CCN(c2ccc(C#N)cc2)CC1 [Example 3-26]
5. CS(=O)(=O)CC(=O)N1CCC(CC#N)(n2cc(C(N)=O)c(Nc3ccnc(F)c3)n2)CC1 [Example 34-58]
6. N#CCC1(n2cc(C(N)=O)c(Nc3ccnc(F)c3)n2)CCC(NC2CCCCC2)CC1 (centres unmarked) [Example 40-23]
7. N#CCC1(n2cc(C(N)=O)c(Nc3ccccc3)n2)CN(C(=O)Nc2cc(F)ccc2F)C1 [Example 38-10]

Output:
1. 163
2. 79
3. 0.7
4. 3
5. 22
6. 237
7. 158

Field: IC50. Fill in for each record below.
1. Cc1cccc(Nc2nn(C3(CC#N)CCN(C(=O)OC(C)(C)C)CC3)cc2C(N)=O)n1 [Example 13-2]
2. Cc1ncc(CN2CCC(CC#N)(n3cc(C(N)=O)c(Nc4ccnc(F)c4)n3)CC2)s1 [Example 22-15]
3. COCCOC(=O)N1CCC(CC#N)(n2cc(C(N)=O)c(Nc3ccc(F)cc3)n2)CC1 [Example 30-48]
4. N#CCC1(n2cc(C(N)=O)c(Nc3ccc(F)cc3)n2)CCN(Cc2cc(F)ccn2)CC1 [Example 22-50]

Output:
[1010, 18, 71, 16]
